Sourced from paper PMC5714123

TESTED_ON: SMAD3 MH1 (Homo sapiens, UniProt P84022 1-132)
Sequence (P84022 1-132): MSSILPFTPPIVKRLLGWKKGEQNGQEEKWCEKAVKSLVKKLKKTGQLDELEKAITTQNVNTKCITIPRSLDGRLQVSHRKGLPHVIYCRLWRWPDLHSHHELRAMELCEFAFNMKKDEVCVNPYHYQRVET
TEST_SUMMARY: EMSA; Hill 1.7; EMSA: 25 mM Tris-HCl (pH not given for binding buffer; RNA stock pH 7.5), 115 mM KCl, 1 mM MgCl2, 1 mM DTT, 20 ng/ul poly I:C, 0.1 mg/ml BSA, 10% glycerol, on ice 2 h; 0.5x TBE gel at 4 C
CONDITION_DETAILS: protein: recombinant; tags: 6xHis-SUMO cleaved; label: 5' 32P (EMSA); hairpin with 1x5 and 6x3 internal loops
MEASUREMENT_LABEL: Kd (nM)
Give the value, in units of nM, as a plain number.

Any idea what Kd was measured for 17 Group II intron D4A (structured_RNA) RNA: GGGGUCUCGUAUUGCAGAAAUGACAACAUCUGCCGUAACCAAUCGGGUAAAAGGUGGUCAAAUCAAGCGAGAC ?
190
